Assay: activity coefficient (dimensionless); of the first substance listed, at infinite dilution; xn = mol fraction of the nth substance listed
Details: 303 K; 101.33 kPa; Liquid; Chromatography; x1 = 0
For each entry below, report its activity coefficient value.

INSERT INTO assay_data (compound, observed_value) VALUES
  ('CC#N [acetonitrile] + C[n+]1ccn(CCO)c1.O=S(=O)([O-])C(F)(F)C(F)(F)C(F)(F)C(F)(F)F', 0.99),
  ('Cc1ccccc1C [1,2-dimethylbenzene] + C[n+]1ccn(CCO)c1.O=S(=O)([O-])C(F)(F)C(F)(F)C(F)(F)C(F)(F)F', 10.4),
  ('CO [methanol] + C[n+]1ccn(CCO)c1.O=S(=O)([O-])C(F)(F)C(F)(F)C(F)(F)C(F)(F)F', 1.1),
  ('CC(C)=O [acetone] + C[n+]1ccn(CCO)c1.O=S(=O)([O-])C(F)(F)C(F)(F)C(F)(F)C(F)(F)F', 0.93),
  ('CCO [ethanol] + C[n+]1ccn(CCO)c1.O=S(=O)([O-])C(F)(F)C(F)(F)C(F)(F)C(F)(F)F', 1.56);

Hi there! I need activity coefficient for each item below, if you can.
1. c1ccccc1 [benzene] + C[n+]1ccn(CCO)c1.O=S(=O)([O-])C(F)(F)C(F)(F)C(F)(F)C(F)(F)F
2. ClC(Cl)Cl [trichloromethane] + C[n+]1ccn(CCO)c1.O=S(=O)([O-])C(F)(F)C(F)(F)C(F)(F)C(F)(F)F
3. C=CCCCC [hex-1-ene] + C[n+]1ccn(CCO)c1.O=S(=O)([O-])C(F)(F)C(F)(F)C(F)(F)C(F)(F)F
4. C1COCCO1 [1,4-dioxane] + C[n+]1ccn(CCO)c1.O=S(=O)([O-])C(F)(F)C(F)(F)C(F)(F)C(F)(F)F

Result:
[4.71, 2.27, 15.7, 1.67]
